# measurement_description: inhibition of endothelial tube formation, primary screen, imaging, VEGF stimulated, CD31 staining, tube area, NPC library (AID 1117340)
# measurement_parameters: VEGF-stimulated ADSC/ECFC co-culture, at 10 µM, stronger effect = higher value
reported_metric: tube area decrease (%)
Lab book: enter the figure in %, no units written.

State its tube area decrease: `N[C@@H](Cc1cc(I)c(O)c(I)c1)C(=O)O`
26.5

Fill in tube area decrease for record O=C1C(CCS(=O)c2ccccc2)C(=O)N(c2ccccc2)N1c1ccccc1 (centres undefined)
1

For `CC(=O)O[C@@H]1C(=O)O[C@@H]2[C@H]1OC(=O)[C@@H]2OC(C)=O` , write its tube area decrease.
-1

Consider the compound `CCCCCC(N)=O` . State its measured tube area decrease.
8.8

Determine its reported tube area decrease: `COc1ccc2c(c1)c(CC(=O)O)c(C)n2C(=O)c1ccc(Cl)cc1`
-10.5
